# MEASURED TARGET: human Peroxisome Proliferator-activated Receptor alpha (PPARa), PPARA (gene 5465) (UniProt Q07869)
# Sequence (Q07869 whole entry, looked up): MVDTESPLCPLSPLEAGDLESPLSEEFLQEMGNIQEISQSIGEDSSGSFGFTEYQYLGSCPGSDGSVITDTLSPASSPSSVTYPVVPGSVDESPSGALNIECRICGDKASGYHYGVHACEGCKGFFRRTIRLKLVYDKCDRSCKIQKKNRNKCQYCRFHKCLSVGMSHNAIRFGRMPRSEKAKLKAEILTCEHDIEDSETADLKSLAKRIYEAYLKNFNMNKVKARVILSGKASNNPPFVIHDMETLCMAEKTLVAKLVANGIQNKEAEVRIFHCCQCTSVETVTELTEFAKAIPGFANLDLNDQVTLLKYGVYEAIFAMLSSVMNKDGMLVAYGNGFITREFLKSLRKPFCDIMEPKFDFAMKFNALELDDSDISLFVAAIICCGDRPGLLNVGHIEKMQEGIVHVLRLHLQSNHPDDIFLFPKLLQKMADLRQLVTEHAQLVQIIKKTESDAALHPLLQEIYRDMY
# EXPERIMENT DESCRIPTION: ATG_PPARa_TRANS: Attagene TRANS-FACTORIAL HepG2 Assay for human Peroxisome Proliferator-activated Receptor alpha (PPARa) (AID 2283001)
Records with an inconclusive call do not appear. The source made the active and inactive calls. How the source made its calls: active means hit-call score of the fitted dose curve at least 0.9, where 1 is the maximum; inconclusive means response in the unintended direction; inactive means score below 0.9.
Allowed answers: yes (1) = active, no (0) = inactive

Could you please tell me the result logged for "O=C(OCCc1ccccc1)c1ccccc1" in this assay?
no (0)

Could you please tell me the result logged for "CCCCCCOC(=O)CCCCC(=O)OCCCCCC" in this assay?
no (0)

Could you please tell me the result logged for "CCCc1ccc(O)c(OC)c1" in this assay?
no (0)

Could you please tell me the result logged for "COC(=O)c1ccccc1C" in this assay?
no (0)

Could you please tell me the result logged for CCC(C)(O)CCCC(C)C (centres undefined) in this assay?
no (0)

Further cases:
Could you please tell me the result logged for "COC(C=C(C)CCC=C(C)C)OC" in this assay?
no (0)

Could you please tell me the result logged for "O=C(O[C@@H]1Cc2c(O)cc(O)cc2O[C@@H]1c1cc(O)c(O)c(O)c1)c1cc(O)c(O)c(O)c1" in this assay?
no (0)

Could you please tell me the result logged for "CC(C)CC(=O)OCc1ccccc1" in this assay?
no (0)

Could you please tell me the result logged for "C=CCOC(=O)c1ccc(C(=O)OCC=C)c(C(=O)OCC=C)c1" in this assay?
yes (1)

Could you please tell me the result logged for "O=C(O)CCC(=O)O" in this assay?
no (0)

Could you please tell me the result logged for "CCOC(=O)c1ccc(C)cc1" in this assay?
no (0)

Could you please tell me the result logged for "CC/C=C\C/C=C\C/C=C\CCCCCCCC(=O)OC" in this assay?
yes (1)

Could you please tell me the result logged for "C1CCSC1" in this assay?
no (0)

Could you please tell me the result logged for "O=C(O)/C=C/c1ccccc1" in this assay?
no (0)

Could you please tell me the result logged for "CO[Si](CCCS)(OC)OC" in this assay?
no (0)

Could you please tell me the result logged for "CCCCC/C=C\C/C=C\CCCCCCCC(=O)O" in this assay?
yes (1)

Could you please tell me the result logged for "Cc1cc(C)c(C=O)c(C)c1" in this assay?
no (0)

Could you please tell me the result logged for "Oc1c(Cl)cc(Cl)c(Cl)c1Cl" in this assay?
yes (1)

Could you please tell me the result logged for "C=CCCCCCCCCOC(C)=O" in this assay?
no (0)

Could you please tell me the result logged for "CCCCCCCOC(=O)c1ccc(O)cc1" in this assay?
no (0)

Could you please tell me the result logged for "c1ccc(Nc2cccc3ccccc23)cc1" in this assay?
yes (1)

Could you please tell me the result logged for "CC(C)c1cccc(C(C)C)c1N" in this assay?
no (0)

Could you please tell me the result logged for "C=CCCCCCCCCC=O" in this assay?
no (0)

Could you please tell me the result logged for "COC(=O)c1ccc(C(=O)OC)c(C(=O)OC)c1" in this assay?
yes (1)

Could you please tell me the result logged for "CCCCCCCCCCCCC" in this assay?
no (0)

Could you please tell me the result logged for CC1C(C)(C)C2=C(C(=O)CCC2)C1(C)C (centres undefined) in this assay?
no (0)
